Test system: Wolbachia pipientis
test_summary: Anti-Wolbachia Cell-Based Screen
Assay type: functional
Parameters: scale not given: in the data most compounds retested in dose-response had high values
test_parameters: 5 µM
The campaign covered roughly 48,000 compounds. About 13,000 (27%) showed an effect of 50% or more. This is one part of the list.
I'd be grateful if you could share measured Percent Effect for these entries.
The response must be a number in % with no trailing unit.

Please provide the recorded Percent Effect for COc1cccc(NC(=O)CC2Cn3ncnc3NC2=O)c1 (stereo unspecified) , tested on Wolbachia pipientis.
110.1

Please provide the recorded Percent Effect for CC(NC(N)=O)C(=O)NCc1ccnc(Oc2ccc(F)cc2)c1 (stereo unspecified) , tested on Wolbachia pipientis.
-14.04

Please provide the recorded Percent Effect for C=C(C)COc1cccc(C(=O)NC(C)c2nnn[nH]2)c1 (stereo unspecified) , tested on Wolbachia pipientis.
104.4

Please provide the recorded Percent Effect for `Cc1cc(C)n(Cc2ccc(-c3noc(C(=O)NCCO)n3)cc2)n1` , tested on Wolbachia pipientis.
112.8

Please provide the recorded Percent Effect for O=C(Nc1cccc(C(F)(F)F)c1)C1CC(=O)N(Cc2ccccn2)C1 (stereo unspecified) , tested on Wolbachia pipientis.
6.876

Please provide the recorded Percent Effect for CC(NC(=O)Nc1nccs1)C(=O)NC1CCCC1 (stereo unspecified) , tested on Wolbachia pipientis.
13.07

Please provide the recorded Percent Effect for CCC(=O)c1ccc(OCC(=O)NC(C)c2nnn[nH]2)cc1 (stereo unspecified) , tested on Wolbachia pipientis.
-5.336

Please provide the recorded Percent Effect for `O=C(CN1CCC(Nc2ncccn2)CC1)Nc1ccccc1` , tested on Wolbachia pipientis.
-0.5486

Please provide the recorded Percent Effect for `COc1cccc(NC(=O)CNc2ccc(C(=O)N(C)C)c(Cl)c2)c1` , tested on Wolbachia pipientis.
14.49

Please provide the recorded Percent Effect for `CNC(=O)CCNC(=O)c1cccc(Cn2nc(C)cc2C)c1` , tested on Wolbachia pipientis.
-10.69

Please provide the recorded Percent Effect for `C=C(C)COc1ccccc1C(=O)NCCCc1nnn[nH]1` , tested on Wolbachia pipientis.
115.9
